// reported kon per item
- TARGET_OR_TEST_SYSTEM: T1, recombinant N-terminal extracellular domain of the human PTH1R receptor (human, UniProt Q03431 27-188, limits assumed)
- T1 construct: domain: N-terminal extracellular domain; Bought reagent; also called N-ECD PTH1R; PTH1R N-terminal ECD
- T1 sequence (looked up): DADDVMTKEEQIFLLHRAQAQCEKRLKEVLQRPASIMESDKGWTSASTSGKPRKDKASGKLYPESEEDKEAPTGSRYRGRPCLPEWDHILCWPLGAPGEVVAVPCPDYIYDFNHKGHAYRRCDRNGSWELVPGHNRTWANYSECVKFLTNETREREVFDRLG
- METHOD_NOTES: SPR, IgG captured, ECD injected
- Method: An anti-human IgG-Fc CMS sensor chip (GE Healthcare) was prepared using standard amine coupling as described by the manufacturer's protocol for the capture Ab on a BIACORE 4000 system (GE Healthcare). […] The data were analyzed using BIACORE 4000 Evaluation Software and was double referenced by subtracting both the blank flow cell data and the averaged bracketing blank injections. […]
I only need the number, in M⁻¹ s⁻¹, no unit after it.

The examples below pair each entry with its known result.
XPA.85.329 (antibody, V domains shown, IgG; also called Ab329; XPA.329) VH: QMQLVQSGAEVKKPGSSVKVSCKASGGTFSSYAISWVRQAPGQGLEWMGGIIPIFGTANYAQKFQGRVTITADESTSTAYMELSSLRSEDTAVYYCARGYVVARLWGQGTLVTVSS VL: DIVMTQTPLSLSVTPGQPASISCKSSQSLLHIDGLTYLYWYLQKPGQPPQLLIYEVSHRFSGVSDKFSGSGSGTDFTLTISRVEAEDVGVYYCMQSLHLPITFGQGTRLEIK; 340000
XPA.85.345 (antibody, V domains shown, Light-chain-shuffled variant of XPA.85.012) VH: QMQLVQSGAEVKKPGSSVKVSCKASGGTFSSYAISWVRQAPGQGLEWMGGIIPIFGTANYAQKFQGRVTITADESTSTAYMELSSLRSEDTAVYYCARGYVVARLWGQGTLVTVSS VL: ETTLTQSPAFMSASVGDRVTITCQASQDINNFLNWYQQKPGKAPKFLIYDASNLEKGVPSRFSGRGSGTEFTLTISSLQPEDIATYYCQQYRDFPLTFGQGTRLEIK; 2.3e+06

Consider now this further binder.
-- ask Consider the binder shown here: XPA.85.287 (antibody, V domains shown, also called Ab287) VH: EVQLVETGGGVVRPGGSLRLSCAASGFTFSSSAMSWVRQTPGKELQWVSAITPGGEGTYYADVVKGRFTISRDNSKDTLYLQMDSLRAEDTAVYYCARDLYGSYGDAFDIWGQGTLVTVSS VL: SYVLTQPPSVSVAPGQTARITCSGDKLGDRYVSWYQQKPGQSPVLVMFEDTGRPAGIPERFSGSNSGNTATLTISGTQAEDEADYYCQAWGTSWVFGGGTQLTVL What is its recorded kon?
-- reply 3.6e+06
